Assay: Half life in human plasma
Format: ADME, cell-free
quantity-kind: half-life

**Query** Need half-life of CCN(CC)C(=O)C1(c2ccccc2)CC1CN (racemic) , thanks.
**Result** 8 h

###

Assay: Drug excretion in human urine treated with [14C]-labeled milnacipran hydrochloride at 100 mg, po up to 4 hrs by HPLC analysis
Format: ADME, organism-based
Details: in vivo
Could you please report measured Drug excretion for the items listed next?
// note: answer is a bare numeric in %

**Query** Need Drug excretion of CCNC(=O)[C@@]1(c2ccccc2)CC1CN (some centres undefined) , thanks.
**Result** 0.92

**Query** Need Drug excretion of CCN(CC)C(=O)[C@]1(c2ccccc2)C[C@@H]1CNC(=O)O[C@@H]1O[C@H](C(=O)O)[C@@H](O)[C@H](O)[C@H]1O , thanks.
**Result** 6.26

**Query** Need Drug excretion of CCN(CC)C(=O)[C@@]1(c2ccccc2)C[C@H]1CNC(=O)O[C@@H]1O[C@H](C(=O)O)[C@@H](O)[C@H](O)[C@H]1O , thanks.
**Result** 0.55

**Query** Need Drug excretion of CCN(CC)C(=O)C1(c2ccccc2)CC1CN (racemic) [MILNACIPRAN] , thanks.
**Result** 15.54

###

Could you please report measured dose excreted for the items listed next?
Test: Drug excretion in rat urine at 100 mg/kg, po
Type: ADME, organism-based
Design: dose 100 mg/kg, route oral
Conditions: read-out: Drug excretion
// note: answer is a bare numeric in %

**Query** Need dose excreted of CCN(CC)[14C](=O)C1(c2ccccc2)CC1CN.Cl (configuration not stated) , thanks.
**Result** 63

**Query** Need dose excreted of CCN(CC)C(=O)C1(c2ccccc2)CC1CNC(=O)O[C@@H]1O[C@H](C(=O)O)[C@@H](O)[C@H](O)[C@H]1O (some centres not stated) , thanks.
**Result** 0.1

###

Could you please report measured Drug excretion for the items listed next?
Assay: Drug excretion in human urine treated with [14C]-labeled milnacipran hydrochloride at 100 mg, po after 0 to 96 hrs by HPLC analysis
Format: ADME, organism-based
Settings: in vivo
// note: answer is a bare numeric in %

**Query** Need Drug excretion of CCN(CC)C(=O)C1(c2ccccc2)CC1CN (racemic) , thanks.
**Result** 54.71

**Query** Need Drug excretion of CCN(CC)C(=O)[C@]1(c2ccccc2)C[C@@H]1CNC(=O)O[C@@H]1O[C@H](C(=O)O)[C@@H](O)[C@H](O)[C@H]1O , thanks.
**Result** 17.23

**Query** Need Drug excretion of CCN(CC)C(=O)[C@@]1(c2ccccc2)C[C@H]1CNC(=O)O[C@@H]1O[C@H](C(=O)O)[C@@H](O)[C@H](O)[C@H]1O , thanks.
**Result** 2.14

**Query** Need Drug excretion of CCNC(=O)[C@@]1(c2ccccc2)CC1CN (some centres undefined) , thanks.
**Result** 7.73

###

Test: Drug excretion in monkey urine at 60 mg/kg, po
Format: ADME, organism-based, Macaca mulatta
Design: dose 60 mg/kg, route oral
Conditions: rhesus monkey, read-out: Drug excretion
quantity-kind: dose excreted (%)
// note: answer is a bare numeric in %

**Query** Need dose excreted of CCN(CC)[14C](=O)C1(c2ccccc2)CC1CN.Cl (configuration not stated) , thanks.
**Result** 40

**Query** Need dose excreted of CCN(CC)C(=O)C1(c2ccccc2)CC1CNC(=O)O[C@@H]1O[C@H](C(=O)O)[C@@H](O)[C@H](O)[C@H]1O (some centres not stated) , thanks.
**Result** 1.6

###

Could you please report measured Drug excretion for the items listed next?
Assay: Drug excretion in human urine treated with [14C]-labeled milnacipran hydrochloride at 100 mg, po after 72 to 96 hrs by HPLC analysis
Assay type: ADME, organism-based
Conditions: in vivo
// note: answer is a bare numeric in %

**Query** Need Drug excretion of CCNC(=O)[C@@]1(c2ccccc2)CC1CN (some centres undefined) , thanks.
**Result** 0.06

**Query** Need Drug excretion of CCN(CC)C(=O)C1(c2ccccc2)CC1CN (racemic) , thanks.
**Result** 0.3

###

Assay: Cmax in human at 100 mg, po by LC-MS/MS analysis
Type: ADME, organism-based
Parameters: dose 100 mg, route oral
Details: in vivo
quantity-kind: Cmax (ng/mL)
// note: answer is a bare numeric in ng/mL

**Query** Need Cmax of CCN(CC)C(=O)C1(c2ccccc2)CC1CN (racemic) , thanks.
**Result** 240

###

System: Plasma
Assay: Plasma concentration in human treated with [14C]-labeled milnacipran hydrochloride at 100 mg, po measured at 6 hrs by HPLC analysis
Format: ADME, organism-based
Settings: in vivo
Could you please report measured Cp for the items listed next?
// note: answer is a bare numeric in ng.Eq/ml

**Query** Need Cp of CCN(CC)C(=O)[C@]1(c2ccccc2)C[C@@H]1CNC(=O)O[C@@H]1O[C@H](C(=O)O)[C@@H](O)[C@H](O)[C@H]1O , thanks.
**Result** 140.79

**Query** Need Cp of CCNC(=O)[C@@]1(c2ccccc2)CC1CN (some centres undefined) , thanks.
**Result** 23.46

**Query** Need Cp of CCN(CC)C(=O)C1(c2ccccc2)CC1CN (racemic) , thanks.
**Result** 186.82

###

Assay: Drug excretion in human urine treated with [14C]-labeled milnacipran hydrochloride at 100 mg, po after 12 to 24 hrs by HPLC analysis
Type: ADME, organism-based
Details: in vivo
Could you please report measured Drug excretion for the items listed next?
// note: answer is a bare numeric in %

**Query** Need Drug excretion of CCNC(=O)[C@@]1(c2ccccc2)CC1CN (some centres undefined) , thanks.
**Result** 2.06

**Query** Need Drug excretion of CCN(CC)C(=O)[C@@]1(c2ccccc2)C[C@H]1CNC(=O)O[C@@H]1O[C@H](C(=O)O)[C@@H](O)[C@H](O)[C@H]1O , thanks.
**Result** 0.58

**Query** Need Drug excretion of CCN(CC)C(=O)C1(c2ccccc2)CC1CN (racemic) , thanks.
**Result** 10.87

**Query** Need Drug excretion of CCN(CC)C(=O)[C@]1(c2ccccc2)C[C@@H]1CNC(=O)O[C@@H]1O[C@H](C(=O)O)[C@@H](O)[C@H](O)[C@H]1O , thanks.
**Result** 2.36

###

Assay: Tmax in human
Type: ADME, organism-based
Conditions: in vivo
quantity-kind: Tmax (h)
// note: answer is a bare numeric in h

**Query** Need Tmax of CCN(CC)C(=O)C1(c2ccccc2)CC1CN (racemic) , thanks.
**Result** 2

###

Experiment: AUC (0 to t) in human at 100 mg, po by LC-MS/MS analysis
Format: ADME, organism-based
Settings: plasma
quantity-kind: AUC(0-t) (ng·h/mL)
// note: answer is a bare numeric in ng·h/mL

**Query** Need AUC(0-t) of CCN(CC)C(=O)C1(c2ccccc2)CC1CN (racemic) , thanks.
**Result** 2340

###

System: Plasma
Assay: Plasma concentration in human treated with [14C]-labeled milnacipran hydrochloride at 100 mg, po measured at 1 hr by HPLC analysis
Type: ADME, organism-based
Details: in vivo
quantity-kind: Cp (ng.Eq/ml)
// note: answer is a bare numeric in ng.Eq/ml

**Query** Need Cp of CCN(CC)C(=O)C1(c2ccccc2)CC1CN (racemic) [MILNACIPRAN] , thanks.
**Result** 83.17

**Query** Need Cp of CCN(CC)C(=O)[C@]1(c2ccccc2)C[C@@H]1CNC(=O)O[C@@H]1O[C@H](C(=O)O)[C@@H](O)[C@H](O)[C@H]1O , thanks.
**Result** 101.66

###

Experiment: Drug excretion in human urine
Format: ADME
Details: read-out: Drug excretion
quantity-kind: dose excreted (%)
// note: answer is a bare numeric in %

**Query** Need dose excreted of CCN(CC)C(=O)C1(c2ccccc2)CC1CN (racemic) , thanks.
**Result** 50

###

Tested on: Plasma
Experiment: Plasma concentration in human treated with [14C]-labeled milnacipran hydrochloride at 100 mg, po measured at 0.5 hrs by HPLC analysis
Type: ADME, organism-based
Details: in vivo
quantity-kind: Cp (ng.Eq/ml)
// note: answer is a bare numeric in ng.Eq/ml

**Query** Give recorded Cp with Plasma for the following compound: CCN(CC)C(=O)[C@]1(c2ccccc2)C[C@@H]1CNC(=O)O[C@@H]1O[C@H](C(=O)O)[C@@H](O)[C@H](O)[C@H]1O
**Result** 26.57

**Query** Give recorded Cp with Plasma for the following compound: CCN(CC)C(=O)C1(c2ccccc2)CC1CN (racemic)
**Result** 33.92

###

Test system: Plasma
Assay: Plasma concentration in human treated with [14C]-labeled milnacipran hydrochloride at 100 mg, po measured at 4 hrs by HPLC analysis
Format: ADME, organism-based
Conditions: in vivo
Could you please report measured Cp for the items listed next?
Output should be the measured figure followed by the unit it is expressed in.

**Query** Need Cp of CCN(CC)C(=O)[C@@]1(c2ccccc2)C[C@H]1CNC(=O)O[C@@H]1O[C@H](C(=O)O)[C@@H](O)[C@H](O)[C@H]1O , thanks.
**Result** 17.49 ng.Eq/ml

**Query** Need Cp of CCN(CC)C(=O)[C@]1(c2ccccc2)C[C@@H]1CNC(=O)O[C@@H]1O[C@H](C(=O)O)[C@@H](O)[C@H](O)[C@H]1O , thanks.
**Result** 234.38 ng.Eq/ml

**Query** Need Cp of CCNC(=O)[C@@]1(c2ccccc2)CC1CN (some centres undefined) , thanks.
**Result** 19.63 ng.Eq/ml

**Query** Need Cp of CCN(CC)C(=O)C1(c2ccccc2)CC1CN (racemic) , thanks.
**Result** 214.21 ng.Eq/ml
